Tested target: IL16_2, Q14005
Sequence (Q14005 350-450): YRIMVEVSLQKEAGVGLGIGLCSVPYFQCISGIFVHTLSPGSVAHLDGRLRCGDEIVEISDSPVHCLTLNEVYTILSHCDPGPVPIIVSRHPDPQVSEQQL
Assay remarks: holdup assay
Set-up: key: below the threshold = too weak to quantify, mostly under pKd 3.1 to 4
Condition label: plain residues with an end cap or a label only (N-terminal biotin on a linker: ttds)
Quantity kind: pKd

Please review the entries below; each comes with its answer.
{"columns": ["Binder", "pKd"],
 "data": [
  ["SGGKRKETLV [NET1, Q7Z628]", "below the threshold"],
  ["PSRDRKETSI [RALBP1, Q15311]", "below the threshold"],
  ["SRSRRRETAL [HPV33-E6, P06427]", "below the threshold"],
  ["PPRQRSETQV [HPV82-E6, Q9IR59]", "below the threshold"],
  ["SSIDLWETAL [SLC15A5, A6NIM6]", "below the threshold"]
]}

Reported pKd of KLVIKTETTV [RASSF6, Q6ZTQ3] : 4.38

The binder identified as SHSSKGETAV [FZD7, O75084] registered its pKd at below the threshold
